# System: ZIKV MR766 NS1
# procedure summary: microbe, parasite or virus in culture
# Format: cell-based, Zika virus
# experimental context: Zika virus, HEK293, 48 h, read-out: NS1-IC50
pIC50: −log10 of the molar value. Counter-ions that a name gives are not always drawn.
Below, each of the molecules is paired with its reported pIC50 value.
measured attribute: pIC50

[[record]]
molecule = "CC(C)C[C@H](NC(=O)[C@@H](NC(=O)c1cccc(-c2ccccc2)n1)[C@@H](C)O)B(O)O"
result = 7.23

[[record]]
molecule = "NC(=O)Nc1cc(-c2cccc(F)c2)sc1C(=O)N[C@H]1CCCNC1"
result = 6.44

[[record]]
molecule = "CC[C@@]1(O)C(=O)OCc2c1cc1n(c2=O)Cc2cc3c(CN(C)C)c(O)ccc3nc2-1 [Topotecan hydrochloride]"
result = 7.29

[[record]]
molecule = "Cn1c2ccccc2c2c3c(c4c5ccccc5n(CCC#N)c4c21)CNC3=O"
result = 6.03

